# DOR GTP-binding Assay v2 (% I) values compiled below
target.of.assay: delta opioid receptor (NG108-15 cell membranes) (Mus musculus)
Construct: NG108-15 cell membranes were purchased from Applied Cell Sciences (Rockville, Md.); host or cells: NG108-15 cells (membranes purchased)
Sequence (P32300 whole entry): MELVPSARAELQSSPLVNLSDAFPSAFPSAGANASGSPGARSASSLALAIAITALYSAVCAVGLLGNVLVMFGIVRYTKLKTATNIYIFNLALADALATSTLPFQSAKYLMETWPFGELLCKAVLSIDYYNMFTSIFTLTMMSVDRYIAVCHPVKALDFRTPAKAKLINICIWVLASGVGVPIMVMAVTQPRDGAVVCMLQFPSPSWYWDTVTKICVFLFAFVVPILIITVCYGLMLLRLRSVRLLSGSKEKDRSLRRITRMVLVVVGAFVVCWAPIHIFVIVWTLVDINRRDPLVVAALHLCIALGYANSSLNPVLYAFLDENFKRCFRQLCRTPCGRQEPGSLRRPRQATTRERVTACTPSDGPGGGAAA
protocol.details: Delta Opioid Receptor Functional Assay: [35S]GTPγS Binding in NG108-15 Cell Membranes, Version 2
Type: biochemical
stated.conditions: NG108-15 cell membranes, version 2; % inhibition of agonist-stimulated GTPγS binding
Unit % implied. Number only.

compound	uom	DOR GTP-binding Assay v2 (% I)
COc1ccc(CN(C(=O)[C@@H](N)Cc2ccc(C(N)=O)cc2)[C@@H](C)c2nc(-c3ccccc3)c[nH]2)cc1C(=O)O	%	66.12
Cc1cc(C(N)=O)cc(C)c1C[C@H](N)C(=O)N(Cc1ccc(C(=O)O)o1)[C@@H](C)c1nc(-c2ccccc2)c[nH]1	%	89.19

Lab note: next compound to report on.
Look up DOR GTP-binding Assay v2 (% I) for this compound: `CCOc1cccc(CN(C(=O)[C@@H](N)Cc2c(C)cc(O)cc2C)[C@@H](C)c2nc(-c3ccccc3)c[nH]2)c1`
53.94

----------
target.of.assay: human mu opioid receptor (Homo sapiens, UniProt P35372)
Construct: purchased Perkin Elmer RBHOMM400UA; host or cells: Chinese Hamster Ovary cells (recombinant expression)
Sequence (P35372 whole entry): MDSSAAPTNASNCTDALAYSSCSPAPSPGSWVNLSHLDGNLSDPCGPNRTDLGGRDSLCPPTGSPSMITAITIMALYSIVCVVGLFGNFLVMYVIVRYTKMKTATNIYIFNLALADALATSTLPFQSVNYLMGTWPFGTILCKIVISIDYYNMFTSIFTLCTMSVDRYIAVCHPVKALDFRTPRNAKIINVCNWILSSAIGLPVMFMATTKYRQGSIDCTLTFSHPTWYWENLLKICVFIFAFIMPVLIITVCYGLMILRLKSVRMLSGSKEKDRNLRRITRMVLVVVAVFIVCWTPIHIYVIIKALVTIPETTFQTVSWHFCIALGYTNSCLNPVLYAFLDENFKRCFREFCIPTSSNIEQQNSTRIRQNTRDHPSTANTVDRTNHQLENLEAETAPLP
protocol.details: Human Mu Opioid Receptor Binding Assay (CHO membranes, 3H-Damgo)
stated.conditions: read-out: hKi μ
reported.property: log10 of Ki (log10 of the value in nM)
Short version: log10 scale, Ki, nM.

molecule	target.of.assay	log10 of Ki
COc1cc(CN(C(=O)[C@@H](N)Cc2c(C)cc(C(N)=O)cc2C)[C@@H](C)c2nc(-c3ccccc3)c[nH]2)ccc1C(=O)O [Cpd 14]	human mu opioid receptor (Homo sapiens, UniProt P35372)	0.67
Cc1cc(O)cc(C)c1C[C@H](N)C(=O)N(C(C)C)[C@@H](Cc1cccc(C(N)=O)c1)c1nc(-c2ccccc2)c[nH]1 [Cpd 121]	human mu opioid receptor (Homo sapiens, UniProt P35372)	1.40

Look up log10 of Ki for this molecule: COc1ccc(CN(C(=O)[C@@H](N)Cc2c(C)cc(C(N)=O)cc2C)[C@@H](C)c2nc(-c3ccccc3C(N)=O)c[nH]2)cc1OC [Cpd 28]
1.64

Look up log10 of Ki for this molecule: Cc1cc(O)cc(C)c1C[C@H](N)C(=O)N(Cc1nc(-c2cccc(O)c2)c(C)[nH]1)C(C)C [Cpd 68]
-0.22

Look up log10 of Ki for this molecule: COc1ccc(CN(C(=O)[C@@H](N)Cc2c(C)cc(C(N)=O)cc2C)[C@@H](C)c2nc(-c3ccccc3)c[nH]2)cc1OC [Cpd 75]
0.41

Look up log10 of Ki for this molecule: Cc1cc(O)cc(C)c1C[C@H](N)C(=O)N(C(C)C)[C@@H](C)c1nc(-c2ccc(F)cc2)c[nH]1 [Cpd 84]
0.04

Look up log10 of Ki for this molecule: COc1ccccc1CN(C(=O)[C@@H](N)Cc1c(C)cc(O)cc1C)[C@@H](C)c1nc(-c2ccccc2)c[nH]1 [Cpd 96]
0.99

Look up log10 of Ki for this molecule: Cc1cc(O)cc(C)c1C[C@H](N)C(=O)N(Cc1nc(-c2ccc(N(C)C)cc2)c(C)[nH]1)C(C)C [Cpd 66]
0.81

----------
target.of.assay: mu opioid receptor (CHO-hMOR cell membranes) (Homo sapiens, UniProt P35372)
Construct: purchased Receptor Biology, Inc. (Baltimore, Md.); host or cells: CHO cells (recombinant expression)
Sequence (P35372 whole entry): as above
protocol.details: Mu Opioid Receptor Functional Assay: [35S]GTPγS Binding in CHO-hMOR Cell Membranes, Versions 1 and 2
Format: biochemical
stated.conditions: version 2, read-out: MOR GTP binding assay v2 EC50
# EC50 values compiled below

Answered cases to consult:
compound	EC50
COc1ccc(CN(C(=O)[C@@H](N)Cc2c(C)cc(C(N)=O)cc2C)[C@@H](C)c2nc(-c3ccccc3)c[nH]2)cc1C(=O)NC1CC1 [Cpd 300]	2.6 nM
COc1ccc(CN(C(=O)[C@@H](N)Cc2c(C)cc(C(N)=O)cc2C)[C@@H](C)c2nc(-c3ccccc3)c[nH]2)cc1C(N)=O [Cpd 295]	1.4 nM
COc1ccc(CN(C(=O)[C@@H](N)Cc2c(C)cc(C(N)=O)cc2C)[C@@H](C)c2nc(-c3ccccc3)c[nH]2)cc1C(=O)NCCO [Cpd 299]	1 nM
COc1ccc(CN(C(=O)[C@@H](N)Cc2ccc(O)cc2)[C@@H](C)c2nc(-c3ccccc3)c[nH]2)cc1C(=O)O [Cpd 261]	17 nM
Cc1cc(C(N)=O)cc(C)c1C[C@H](N)C(=O)N(Cc1ccc(C(=O)O)o1)[C@@H](C)c1nc(-c2ccccc2)c[nH]1 [Cpd 256]	13 nM
Cc1cc(O)cc(C)c1C[C@H](N)C(=O)N(Cc1cccc(C(=O)O)c1)[C@@H](C)c1nc(-c2ccccc2)c[nH]1 [Cpd 48]	2.2 nM
COc1ccc(CN(C(=O)[C@@H](N)Cc2c(C)cc(C(N)=O)cc2C)[C@@H](C)c2nc(-c3ccccc3)c[nH]2)cc1-c1nnn[nH]1 [Cpd 8]	1.2 nM
COC(=O)c1ccc(CN(C(=O)[C@@H](N)Cc2ccc(C(N)=O)cc2)[C@@H](C)c2nc(-c3ccccc3)c[nH]2)o1 [Cpd 303]	30 nM
Cc1cc(C(N)=O)cc(C)c1C[C@H](N)C(=O)N(Cc1cccc(C(=O)O)c1)[C@@H](C)c1nc(-c2ccccc2)c[nH]1 [Cpd 227]	60.8 nM
Cc1cc(O)cc(C)c1C[C@H](N)C(=O)N(Cc1ccnc2ccccc12)[C@@H](C)c1nc(-c2ccccc2)c[nH]1 [Cpd 246]	4.5 nM

Look up EC50 for this compound: COc1ccc(CN(Cc2nc(-c3ccccc3)c[nH]2)C(=O)[C@@H](N)Cc2ccc(C(N)=O)cc2)cc1C(=O)O [Cpd 5]
71 nM

Look up EC50 for this compound: COC(=O)c1ccc(CN(C(=O)[C@@H](N)Cc2c(C)cc(C(N)=O)cc2C)[C@@H](C)c2nc(-c3ccccc3)c[nH]2)cn1 [Cpd 255]
3.48 nM

Look up EC50 for this compound: COC(=O)c1cc(CN(C(=O)[C@@H](N)Cc2c(C)cc(C(N)=O)cc2C)[C@@H](C)c2nc(-c3ccccc3)c[nH]2)ccc1OC [Cpd 17]
2.5 nM

----------
# pEC50 values compiled below
target.of.assay: delta opioid receptor (NG108-15 cell membranes) (Mus musculus)
Construct: NG108-15 cell membranes were purchased from Applied Cell Sciences (Rockville, Md.); host or cells: NG108-15 cells (membranes purchased)
protocol.details: Delta Opioid Receptor Functional Assay: [35S]GTPγS Binding in NG108-15 Cell Membranes, Version 2
Type: biochemical
stated.conditions: NG108-15 cell membranes, [35S]GTPγS, version 2; read-out: DOR GTP-binding Assay_v2_ EC50
pEC50: −log10 of the molar value.

compound	pEC50
COc1ccc(CN(C(=O)[C@@H](N)Cc2c(C)cc(C(N)=O)cc2C)[C@@H](C)c2nc(-c3ccccc3Br)c[nH]2)cc1C(=O)O	< 5.00
COc1ccc(CN(Cc2nc(-c3ccccc3)c[nH]2)C(=O)[C@@H](N)Cc2ccc(C(N)=O)cc2)cc1C(=O)O	< 5.00
Cc1cc(O)cc(C)c1C[C@H](N)C(=O)N(Cc1ccc(C(=O)O)o1)[C@@H](C)c1nc(-c2ccccc2)c[nH]1	< 5.00
Cc1cc(C(N)=O)cc(C)c1C[C@H](N)C(=O)N(Cc1cccc(C(=O)O)c1)[C@@H](C)c1nc(-c2ccccc2)c[nH]1	< 5.00

Look up pEC50 with delta opioid receptor (NG108-15 cell membranes) (Mus musculus) for this compound: `COc1ccc(CN(C(=O)[C@@H](N)Cc2c(C)cc(C(N)=O)cc2C)[C@@H](C)c2nc(-c3ccc(Br)cc3)c[nH]2)cc1C(=O)O`
< 5.00

Look up pEC50 with delta opioid receptor (NG108-15 cell membranes) (Mus musculus) for this compound: `COc1ccc(CN(C(=O)[C@@H](N)Cc2c(C)cc(C(N)=O)cc2C)[C@@H](C)c2nc(-c3cccc(Br)c3)c[nH]2)cc1C(=O)O`
< 5.00

Look up pEC50 with delta opioid receptor (NG108-15 cell membranes) (Mus musculus) for this compound: `COc1ccc(CN(C(=O)[C@@H](N)Cc2c(C)cc(O)cc2C)[C@@H](C)c2nc(-c3ccccc3)c[nH]2)cc1C(=O)O`
< 5.00

Look up pEC50 with delta opioid receptor (NG108-15 cell membranes) (Mus musculus) for this compound: `COc1ccc(CN(C(=O)[C@@H](N)Cc2c(C)cc(C(N)=O)cc2C)[C@@H](C)c2nc(-c3ccccc3C(=O)O)c[nH]2)cc1OC`
< 5.00

Look up pEC50 with delta opioid receptor (NG108-15 cell membranes) (Mus musculus) for this compound: `COc1ccc(CN(C(=O)[C@@H](N)Cc2c(C)cc(C(N)=O)cc2C)[C@@H](C)c2nc(-c3ccccc3)c[nH]2)cc1-c1nnn[nH]1`
< 5.00

Look up pEC50 with delta opioid receptor (NG108-15 cell membranes) (Mus musculus) for this compound: `COc1ccc(CN(C(=O)[C@@H](N)Cc2c(C)cc(C(N)=O)cc2C)[C@@H](C)c2nc(-c3ccc(I)cc3)c[nH]2)cc1C(=O)O`
< 5.00

Look up pEC50 with delta opioid receptor (NG108-15 cell membranes) (Mus musculus) for this compound: `Cc1cc(C(N)=O)cc(C)c1C[C@H](N)C(=O)N(Cc1cccc(-c2nnn[nH]2)c1)[C@@H](C)c1nc(-c2ccccc2)c[nH]1`
< 5.00

Look up pEC50 with delta opioid receptor (NG108-15 cell membranes) (Mus musculus) for this compound: `Cc1cc(C(N)=O)cc(C)c1C[C@H](N)C(=O)N(Cc1ccccc1C(=O)O)[C@@H](C)c1nc(-c2ccccc2)c[nH]1`
< 5.00

Look up pEC50 with delta opioid receptor (NG108-15 cell membranes) (Mus musculus) for this compound: `COc1ccc(CN(C(=O)[C@@H](N)Cc2c(C)cc(C(N)=O)cc2C)[C@@H](C)c2nc(-c3ccccc3)c[nH]2)cc1OC`
8.85

Look up pEC50 with delta opioid receptor (NG108-15 cell membranes) (Mus musculus) for this compound: `COC(=O)c1ccc(CN(C(=O)[C@@H](N)Cc2ccc(C(N)=O)cc2)[C@@H](C)c2nc(-c3ccccc3)c[nH]2)o1`
7.02

Look up pEC50 with delta opioid receptor (NG108-15 cell membranes) (Mus musculus) for this compound: `COC(=O)c1ccc(CN(C(=O)[C@@H](N)Cc2c(C)cc(C(N)=O)cc2C)[C@@H](C)c2nc(-c3ccccc3)c[nH]2)o1`
8.13

Look up pEC50 with delta opioid receptor (NG108-15 cell membranes) (Mus musculus) for this compound: `COC(=O)c1cccc(CN(C(=O)[C@@H](N)Cc2c(C)cc(C(N)=O)cc2C)[C@@H](C)c2nc(-c3ccccc3)c[nH]2)c1`
8.47
